- Assay Notes: qHTS Assay for Modulators of miRNAs and/or Inhibitors of miR-21
- Test Settings: HeLa miR-21-FLuc reporter, luciferase luminescence, 48 h; actives lower the signal
The campaign covered roughly 340,000 compounds. About 3,300 (0.97%) were called active. Inconclusive results (about 9%) are left out. Some of the results follow.
Reported Endpoint: Potency

For COc1ccc(NC(=O)c2ccc(C)cc2)c(OC)c1 , what is its reported Potency?
5.85 µM (active)

Another: Cc1cc(NC(=O)c2cccc(COc3ccc(Br)cc3)c2)no1
1.04 µM (active)

And then O/N=C/c1cn(-c2ccc(Cl)cc2)nn1 , what is it?
13.1 µM (active)

Next entry: C=CCN(C(=O)c1oc2c(Cl)cc(C)cc2c1C)C1CCS(=O)(=O)C1 (stereo not given)
10.4 µM (active)

Now consider COc1cccc(COc2ccc3ccc(=O)oc3c2)c1 .
7.36 µM (active)

Cc1ccc(-c2nc3c4ccccc4[nH]c(=O)n3n2)cc1 ?
1.65 µM (active)

// next record COc1cc(/C=N/Nc2ccccc2C(F)(F)F)ccc1O
16.5 µM (active)

Next molecule: CC(=O)Nc1ccc(/C=N/Nc2nc3ccccc3s2)cc1
0.185 µM (active)

Same for CCCc1ccc(-c2cc(NC(=O)CSc3n[nH]c(N)n3)n(-c3ccccc3)n2)cc1
18.5 µM (active)

Then COc1ccc(/C(C)=N/NC(=O)c2ccccc2N)cc1 ?
18.5 µM (active)

More entries:
Which Potency reading was recorded for the molecule COC(=O)c1ccc(CSC2=NCCS2)cc1 ?
4.65 µM (active)

Moving on to CCN1CCC2(CC1)Oc1c(OC)cccc1C1CC(c3cccnc3)=NN12 (stereo not given)
11.7 µM (active)

What do you get for O=C(Nc1ncccc1Cl)C1COc2ccccc2O1 (stereo not given) ?
4.65 µM (active)

// query: CCOC(=O)c1sc(-c2ccccc2)cc1N
3.98 µM (active)

---

- Assay Notes: qHTS Assay for Modulators of miRNAs and/or Inhibitors of miR-21
- Test Settings: HeLa miR-21-FLuc reporter, luciferase luminescence, 48 h; actives lower the signal
Among all 340,000 compounds or so, about 3,300 (0.97%) were called active. Inconclusive results (about 9%) are left out. The list shows a part of the results.
We begin with a simple list: items and their reported Potency.

Example compounds with recorded Potency:
Which measured Potency value corresponds to COc1cc(OC)cc(-c2nc3cc(C)ccc3o2)c1 ?
1650 nM (active)

Next compound: Cc1cccc(-c2noc(-c3cc(C(C)C)[nH]n3)n2)c1
464 nM (active)

Try this compound next: CC(=O)c1c(C)[nH]c(C(=O)Nc2ccc(Cl)cc2F)c1C
2070 nM (active)

Item: COC(=O)c1c(-c2cccs2)csc1NC(=O)c1cccc(Cl)c1
656 nM (active)

Another compound to check: Cc1ccc2oc(-c3ccccc3)nc2c1
6560 nM (active)

Further cases:
# get_value(readout='Potency', item= CC/C(=N\NC(=O)c1c[nH]c2ccccc12)c1cccs1 )
2930 nM (active)

---

- Assay Notes: qHTS Assay for Modulators of miRNAs and/or Inhibitors of miR-21
- Test Settings: HeLa miR-21-FLuc reporter, luciferase luminescence, 48 h; actives lower the signal
Among all 340,000 compounds or so, about 3,300 (0.97%) were called active. Not shown: some 9% with an inconclusive outcome. Some of the results follow.
Collected Potency values appear next to each entry.

Some entries whose results are on file:
Which value of Potency has been reported for COc1ccc(Nc2nc(N)nc(SCc3nnc(C)s3)n2)cc1 in the records?
14.7 µM (active)

Repeat for the following molecule: COc1ccccc1N1CCN(C(=S)NC(=O)/C=C/c2ccccc2)CC1
9.27 µM (active)

Continuing:
Field request: Potency | item: O=[N+]([O-])c1ccccc1OCc1nc(-c2cccs2)no1
2.61 µM (active)

For COc1cccc(C(=O)/C=C/Nc2ccc(NC(C)=O)cc2)c1 then?
11.7 µM (active)

Subsequent entry: CCc1nc(NC(C)(C)C)c2cnn(-c3ccccc3)c2n1
7.36 µM (active)

Please give the result for CCc1cc(CNC(=O)CCc2nnc(CCCc3ccccc3)o2)on1 too.
7.36 µM (active)

Same lookup for Cc1nc(C)c(-c2ccc(SCc3ccccc3F)nn2)s1 , please.
14.7 µM (active)

---

The entries below come with measured Potency values attached.
- Assay Notes: qHTS Assay for Modulators of miRNAs and/or Inhibitors of miR-21; further: potency means the concentration at half of the fitted maximal effect; nearly all actives have a fitted effect of over 55% in size
- Test Settings: HeLa miR-21-FLuc reporter, luciferase luminescence, 48 h; actives lower the signal
About 3,300 (0.97%) of roughly 340,000 compounds were called active. Another 9% or so got no clear call; they are omitted. This is one part of the list.

Some solved entries appear below for comparison.
Which Potency is listed for COc1ccc(-c2nc(C#N)c(NCCCn3ccnc3)o2)cc1OC ?
16.5 µM (active)

Same question for CC(C)(C)c1ccc(-c2nc(C#N)c(NCc3ccncc3)o2)cc1 please.
4.14 µM (active)

Continue with CCOc1ccc2nc(SCC(=O)c3cccs3)sc2c1
4.14 µM (active)

---
Field request: Potency | item: CCCCOc1ccc(-c2nnc(N)s2)cc1
14.7 µM (active)

Then what about the molecule CC(=O)c1ccc(NC(=O)CSc2nnc(NC(=O)Nc3ccccc3)s2)cc1 ?
7.36 µM (active)

Moving on to the next molecule: O=C(NCCc1ccccc1)c1cccc([N+](=O)[O-])c1
8.26 µM (active)

---

Measured Potency of individual entries
- Assay Notes: qHTS Assay for Modulators of miRNAs and/or Inhibitors of miR-21; further: potency means the concentration at half of the fitted maximal effect; nearly all actives have a fitted effect of over 55% in size
- Test Settings: HeLa miR-21-FLuc reporter, luciferase luminescence, 48 h; actives lower the signal
The campaign covered roughly 340,000 compounds. About 3,300 (0.97%) were called active. About 9% were inconclusive and are not listed. The list shows a part of the results.

Examples with answers:
Name the reported Potency value associated with the molecule O=C(O)c1ccc(N/N=C/c2ccc(-c3cccc(Cl)c3)o2)cc1
0.927 µM (active)

Now the same for CC(=O)Nc1ccc2c(c1)ncn2-c1ccccc1
7.36 µM (active)

What do you get for O=C(O)c1ccc(N/N=C/c2ccc(-c3ccc(Br)cc3)o2)cc1 ?
5.85 µM (active)

Okay, and COc1cc(/C=N/NC(=S)NC2CC3CCC2C3)ccc1O (stereo unspecified) ?
7.36 µM (active)

Another: O=C(O)c1ccc(N/N=C/c2ccc(-c3ccc(Cl)cc3Cl)o2)cc1
18.5 µM (active)

Now examine the next entry.
# get_value(readout='Potency', item= CCC(=O)Nc1ccc2c(c1)ncn2-c1ccc(C)cc1 )
5.21 µM (active)

---

- Assay Notes: qHTS Assay for Modulators of miRNAs and/or Inhibitors of miR-21; further: potency means the concentration at half of the fitted maximal effect; nearly all actives have a fitted effect of over 55% in size
- Test Settings: HeLa miR-21-FLuc reporter, luciferase luminescence, 48 h; actives lower the signal
About 3,300 (0.97%) of roughly 340,000 compounds were called active. Another 9% or so got no clear call; they are omitted. Some of the results follow.
Form field: Potency (one value per entry).

Reported Potency for Cc1cc(OCc2cn3cccnc3n2)ccc1Cl : what is it?
7.36 µM (active)

Now the same for CN(C(=O)c1cccc(COc2ccc(Cl)cc2Cl)c1)c1ccccc1
2.61 µM (active)

Now consider CC(C)C(=O)NC(=S)Nc1sc2c(c1C(N)=O)CCCC2 and answer again.
6.56 µM (active)

More entries:
# query: Potency of entry O=Cc1c(N2CCN(c3ccccc3)CC2)nc2ccccn2c1=O
16.5 µM (active)

Next up: O=C(NNC(=S)Nc1ccccc1)c1ccc(O)cc1
7.36 µM (active)

Ok, now COc1cc(CNc2ccc(NC(C)=O)cc2)ccc1OCc1ccccc1C
7.36 µM (active)

For Cc1cc(C)nc(SCc2csc(-c3ccccc3)n2)n1 then?
1.65 µM (active)

Next up: C=C(C)C1Cc2cc3ccc(=O)oc3cc2O1 (stereo not given)
16.5 µM (active)

Repeat for the following molecule: C/C(=N/NC(=O)c1cccs1)c1ccc(N2CCOCC2)cc1
11.7 µM (active)

---

- Assay Notes: qHTS Assay for Modulators of miRNAs and/or Inhibitors of miR-21; further: potency means the concentration at half of the fitted maximal effect; nearly all actives have a fitted effect of over 55% in size
- Test Settings: HeLa miR-21-FLuc reporter, luciferase luminescence, 48 h; actives lower the signal
Screen size: about 340,000 compounds; about 3,300 (0.97%) were called active. Not shown: some 9% with an inconclusive outcome. The list shows a part of the results.
Overview of reported Potency across a group of molecules:

So what's the measured Potency for this one? Clc1ccc(SCc2cn3ccccc3n2)cc1
4.65 µM (active)

Same question for Cc1cccc2nc(CSc3nc4ccccc4o3)cn12 please.
18.5 µM (active)

What about this molecule? c1ccc2c(SCc3cn4ccccc4n3)nncc2c1
14.7 µM (active)

Next up: O=C(CCN1C(=O)c2ccccc2C1=O)Nc1ccc(-c2nc3ccccc3s2)cc1
0.261 µM (active)

What would you report for Cc1oncc1-c1csc(-c2ccccc2)n1 ?
5.21 µM (active)

More entries:
Recorded Potency of N/C(Cc1ccc([N+](=O)[O-])cc1)=N\OC(=O)c1ccccc1F , please.
16.5 µM (active)

// next record O=C(/C=C/c1cccs1)c1ccc(NC(=O)c2ccccc2F)cc1
13.1 µM (active)

// next record Cc1ccc2sc(-c3ccc(NC(=O)CCN4C(=O)c5ccccc5C4=O)cc3)nc2c1
0.104 µM (active)

Thanks! And CN1CCc2c(sc(NC(=O)C3COc4ccccc4O3)c2C(N)=O)C1 (stereo unspecified) ?
9.27 µM (active)

Another molecule: O=C(Nc1ccc([N+](=O)[O-])cc1)c1ccccc1F
4.14 µM (active)

Another molecule: Cc1ccc2nc(-c3ccc(NC(=O)CCN4C(=O)c5ccccc5C4=O)cc3)sc2c1
0.0927 µM (active)
